- ASSAY METHOD TEXT: qHTS assay to identify small molecule antagonists of the androgen receptor (AR) signaling pathway using the MDA cell line - cell viability counter screen (AID 743041; also: nearly all actives have a fitted effect of over 45% in size)
- ASSAY CONDITIONS: MDA-kb2 viability, CellTiter-Fluor, 16 h, cells co-treated with R1881 androgen agonist; series mostly up to 70.3 µM
Results filed as inconclusive are left out. Activity calls are given as the source filed them. Calls follow the shape of the dose curve; as a rule, active = well fitted cell-killing curve with a large enough effect in the repeat runs; inconclusive = weak or mixed curves, or effect the other way; inactive = flat fitted curve, though single readings scatter.
Classes to choose from: true (1) = active, false (0) = inactive

# COMPOUND, LABEL VALUE
rows = [
    ("N=c1ccn2c(n1)O[C@H]1[C@H](O)[C@@H](CO)O[C@H]12", "false (0)"),
    ("Cc1ncc(CO)c(C=O)c1O", "false (0)"),
    ("CCCCCCCN", "false (0)"),
    ("C=CC(=O)OCCOCCOCCOCCOC(=O)C=C", "true (1)"),
    ("OC(C#CCN1CCCC1)(c1ccccc1)c1ccccc1", "false (0)"),
]

Prompt: Returns: the outcome recorded for CC1CCC(=O)C1=O (configuration not stated) in this assay.
Completion: false (0)

Prompt: Returns: the outcome recorded for C/C(=C(\CCOP(=O)(O)O)SC(=O)c1ccccc1)N(C=O)Cc1cnc(C)nc1N in this assay.
Completion: false (0)

Prompt: Returns: the outcome recorded for CCO[Si](CCCCl)(OCC)OCC in this assay.
Completion: false (0)

Prompt: Returns: the outcome recorded for CN(Cc1ccc(C(C)(C)C)cc1)Cc1cccc2ccccc12 in this assay.
Completion: false (0)

Prompt: Returns: the outcome recorded for COC(=O)C1=C(C)NC(COC(N)=O)=C(C(=O)OC(C)C)C1c1cccc(Cl)c1Cl (configuration not stated) in this assay.
Completion: false (0)

Prompt: Returns: the outcome recorded for CCCn1cnc2c1c(=O)n(CCCCC(C)=O)c(=O)n2C in this assay.
Completion: false (0)

Prompt: Returns: the outcome recorded for CCOc1ccc(N=Nc2ccc(/C=C/c3ccc(N=Nc4ccc(OCC)cc4)cc3S(=O)(=O)O)c(S(=O)(=O)O)c2)cc1 in this assay.
Completion: true (1)

----------
- ASSAY METHOD TEXT: A CellTox Green Cytotoxicity Assay to monitor cytotoxicity in HepG2 cells - 0 hour (AID 1224882); also: % is scaled to controls: 0 for no effect and ±100 for the full control effect; nearly all actives have a fitted effect of over 35% in size
- ASSAY CONDITIONS: CellTox Green fluorescence; series mostly up to 76.8 µM
Calls of active or inactive are those of the source. Calls follow the shape of the dose curve; as a rule, active = well fitted activation curve with a large enough effect in the repeat runs; inconclusive = weak or mixed curves; inactive = flat fitted curve, though single readings scatter.

# MOLECULE, cytotoxicity
data = [
    ("CC(C)=CCC/C(C)=C/CC/C(C)=C/CO", "inactive"),
    ("COc1ccc(C)cc1[N+](=O)[O-]", "inactive"),
    ("CC1(c2ccccc2)OC(C(=O)O)=CC1=O (stereo not drawn)", "inactive"),
]

----------
- ASSAY METHOD TEXT: qHTS assay for small molecule agonists of the antioxidant response element (ARE) signaling pathway (AID 743202); also: % is scaled to controls: 0 for no effect and ±100 for the full control effect
- ASSAY CONDITIONS: HepG2 ARE-bla reporter, beta-lactamase FRET, 16 h; series mostly up to 73.3 µM
Inconclusive results are not listed. Active and inactive are the calls of the source. Calls follow the shape of the dose curve; as a rule, active = well fitted activation curve with a large enough effect in the signal ratio in the repeat runs (not every such curve was filed as active); inconclusive = weak or mixed curves, or effect the other way; inactive = no such curve, though single readings can be large or run the other way; the % refers to the signal ratio.
Classes to choose from: active, inactive

Prompt: Returns: the outcome recorded for CCOC(=O)C(O)c1ccccc1 (stereo unspecified) in this assay.
Completion: inactive

Prompt: Returns: the outcome recorded for O=C1c2ccccc2S(=O)(=O)N1CCCCN1CCN(c2ncccn2)CC1 in this assay.
Completion: inactive

----------
- ASSAY METHOD TEXT: qHTS RealTime-Glo MT Cell Viability Assay in HEK293 cells - 24 hour (AID 1224886); also: nearly all actives have a fitted effect of over 50% in size; also: potency is read from the fitted curve at half-maximal effect
- ASSAY CONDITIONS: RealTime-Glo luminescence; series mostly up to 76.8 µM
Records with an inconclusive call do not appear. The source made the active and inactive calls. The call rests on the fitted dose curve; in most records, active means well fitted cell-killing curve with a large enough effect in the repeat runs; inconclusive means weak or mixed curves, or effect the other way; inactive means flat fitted curve, though single readings scatter.
RECORDED METRIC: Potency

Consider the worked cases shown below.
# COMPOUND STRUCTURE STRING, EXPERIMENTAL RESULT
measured = [
    ("O=C1c2ccccc2S(=O)(=O)N1CCCCN1CCN(c2ncccn2)CC1", "inactive"),
    ("C=C1C(=C/C=C2\\CCC[C@]3(C)[C@@H]([C@H](C)/C=C/[C@@H](O)C4CC4)CC[C@@H]23)C[C@@H](O)C[C@@H]1O", "19 µM (active)"),
    ("C=CCOC(=O)CCC1CCCCC1", "inactive"),
    ("Cc1ccccc1S(=O)(=O)O", "inactive"),
    ("Cc1ncc(CO)c(C=O)c1O", "inactive"),
]

Here's the next entry for you.
Prompt: What Potency value was documented for this compound, CCCCCCCCO[C@@H]1O[C@H](CO)[C@@H](O)[C@H](O)[C@H]1O ?
Completion: inactive

----------
Provide the reported activity change, negative = cytotoxicity of each item.
- ASSAY METHOD TEXT: qHTS assay to identify small molecule antagonists of the progesterone receptor (PR) signaling pathway - cell viability counter screen (AID 1346798);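 also: HEK293T PR-UAS-bla cells stimulated with the agonist R5020; % is scaled to controls: 0 for no effect and ±100 for the full control effect; nearly all actives have a fitted effect of over 50% in size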
- ASSAY CONDITIONS: PR-UAS-bla HEK293T viability, CellTiter-Glo luminescence, 16 h; series mostly up to 92.4 µM
Inconclusive results are not listed. Activity calls are given as the source filed them. The call rests on the fitted dose curve; in most records, active means well fitted cell-killing curve with a large enough effect in the repeat runs; inconclusive means weak or mixed curves, or effect the other way; inactive means no such curve, though single readings can be large or run the other way.

# COMPOUND, activity change, negative = cytotoxicity
measured = [
    ("CN(C)c1ccc(/C=C/c2ccc([N+](=O)[O-])cc2)cc1", "-5% [at 8.39 µM] (inactive)"),
    ("O=C(O)CNCC(=O)O", "-2.59% [at 8.39 µM] (inactive)"),
    ("CC(CSC(=O)c1ccccc1)C(=O)N1C[C@@H](Sc2ccccc2)C[C@H]1C(=O)O (stereo not given in full)", "-8.73% [at 18.9 µM] (inactive)"),
    ("Cc1[nH]c(C)c(Cl)c(=O)c1Cl", "10.6% [at 18.9 µM] (inactive)"),
]

Prompt: What activity change, negative = cytotoxicity value was documented for this compound, NC(N)=NCCC[C@H](N)C(=O)O ?
Completion: -0.687% [at 8.39 µM] (inactive)

----------
- ASSAY METHOD TEXT: qHTS assay to identify small molecule agonists of H2AX - cell viability counter screen (AID 1224847); also: nearly all actives have a fitted effect of over 30% in size
- ASSAY CONDITIONS: CHO-K1 viability, CellTiter-Glo luminescence, 3 h; series mostly up to 154 µM
Results filed as inconclusive are left out. Active and inactive are the calls of the source. Calls come from the whole dose curve.
Classes to choose from: active, inactive

Below are worked cases with known answers.
# MOLECULE, LABEL VALUE
records = [
    ("C/C=C(/C(=C/C)c1ccc(OC(C)=O)cc1)c1ccc(OC(C)=O)cc1", "inactive"),
    ("Nc1cccc([N+](=O)[O-])c1", "inactive"),
    ("c1ccc(-c2ccccn2)nc1", "inactive"),
    ("O=C(c1ccc(F)cc1)C1CCN(CCn2c(=S)[nH]c3ccccc3c2=O)CC1", "active"),
    ("CCN(CC)CCOC(=O)C(c1ccccc1)C1CCCCC1 (stereo not drawn)", "active"),
    ("CN(C)CCOC(c1ccccc1)c1ccc(Br)cc1 (stereo not drawn)", "inactive"),
]

Prompt: Returns: the outcome recorded for CCO[C@H](Cc1ccc(OCCc2ccc(OS(C)(=O)=O)cc2)cc1)C(=O)O in this assay.
Completion: inactive

Prompt: Returns: the outcome recorded for C[C@@H](c1ncncc1F)C(O)(Cn1cncn1)c1ccc(F)cc1F (stereo partly drawn) in this assay.
Completion: inactive

----------
- MEASURED ON: Estrogen receptor (Homo sapiens) (UniProt P03372)
- Sequence (P03372 whole entry, looked up): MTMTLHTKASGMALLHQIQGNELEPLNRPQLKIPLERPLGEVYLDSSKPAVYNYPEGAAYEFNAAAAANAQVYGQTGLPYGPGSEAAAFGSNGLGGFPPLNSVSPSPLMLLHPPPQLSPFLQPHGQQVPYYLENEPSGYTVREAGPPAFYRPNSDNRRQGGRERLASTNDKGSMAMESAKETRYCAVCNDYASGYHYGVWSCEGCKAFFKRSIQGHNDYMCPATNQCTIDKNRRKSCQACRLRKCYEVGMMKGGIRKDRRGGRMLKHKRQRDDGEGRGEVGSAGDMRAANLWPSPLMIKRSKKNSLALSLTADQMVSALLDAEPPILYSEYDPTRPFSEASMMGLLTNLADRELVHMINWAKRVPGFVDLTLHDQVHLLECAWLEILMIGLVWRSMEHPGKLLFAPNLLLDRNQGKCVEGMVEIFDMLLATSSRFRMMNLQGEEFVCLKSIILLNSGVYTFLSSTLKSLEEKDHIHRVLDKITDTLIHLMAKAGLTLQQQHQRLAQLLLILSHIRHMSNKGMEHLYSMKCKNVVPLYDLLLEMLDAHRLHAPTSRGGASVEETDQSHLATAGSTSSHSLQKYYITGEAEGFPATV
- ASSAY METHOD TEXT: qHTS assay to identify small molecule agonists of the estrogen receptor alpha (ER-alpha) signaling pathway in the presence of an antagonist (AID 1259383); also: top concentration of the series differs between compounds; % is scaled to controls: 0 for no effect and ±100 for the full control effect; nearly all actives have a fitted effect of over 15% in size
- ASSAY CONDITIONS: VM7Luc4E2 cells, ERE-luciferase, +ICI-182,780, 22 h; series mostly up to 42.5 µM
Calls of active or inactive are those of the source. Calls follow the shape of the full dose curve.
Classes to choose from: Y = active, N = inactive

# COMPOUND, MEASURED ON, LABEL VALUE
data = [
    ("CNCCCCOc1ccccc1Cc1ccccc1", "Estrogen receptor (Homo sapiens) (UniProt P03372)", "N"),
]

Prompt: Returns: the outcome recorded for C[N+](C)(C)CCOC(=O)CCC(=O)OCC[N+](C)(C)C in this assay.
Completion: N

Prompt: Returns: the outcome recorded for CC(C)CC(=O)C1C(=O)c2ccccc2C1=O in this assay.
Completion: N

Prompt: Returns: the outcome recorded for CCCCCCCCCCO[C@@H]1O[C@H](CO)[C@@H](O)[C@H](O)[C@H]1O in this assay.
Completion: N

Prompt: Returns: the outcome recorded for O=[N+]([O-])c1ccc2[nH]ncc2c1 in this assay.
Completion: N

Prompt: Returns: the outcome recorded for CN(C)c1ccc(CCO)cc1 in this assay.
Completion: N

----------
- ASSAY METHOD TEXT: qHTS assay to identify small molecule agonists of the vitamin D receptor (VDR) signaling pathway - cell viability counter screen (AID 743224); also: nearly all actives have a fitted effect of over 50% in size; also: potency is read from the fitted curve at half-maximal effect
- ASSAY CONDITIONS: VDR-bla HEK293T viability, CellTiter-Glo luminescence, 16 h; series mostly up to 62.6 µM
Records with an inconclusive call do not appear. The source made the active and inactive calls. Calls follow the shape of the dose curve; as a rule, active = well fitted cell-killing curve with a large enough effect in the repeat runs; inconclusive = weak or mixed curves, or effect the other way; inactive = no such curve, though single readings can be large or run the other way.
RECORDED METRIC: Potency

Consider the worked cases shown below.
# MOLECULE, Potency
records = [
    ("CCCCc1ncc(/C=C(\\Cc2cccs2)C(=O)O)n1Cc1ccc(C(=O)O)cc1", "inactive"),
    ("c1ccc(-c2ccccn2)nc1", "inactive"),
    ("CCCCCCCCCCCCCCCCCCOS(=O)(=O)O", "54.9 µM (active)"),
    ("CCCCc1nc2cccnc2n1Cc1ccc(-c2ccccc2-c2nnn[nH]2)cc1", "inactive"),
    ("COCCCN1CCC(NC(=O)c2cc(Cl)c(N)c3c2OCC3)CC1", "inactive"),
    ("CCCCCCCCCCCc1ccccc1", "inactive"),
    ("O=C1OC(=O)C2C3C=CC(C3)C12 (stereo not drawn)", "inactive"),
    ("O=C(CS)Nc1ccccc1", "inactive"),
]

Batch: Potency for all items listed.
1. C=CC(=O)OCCOc1ccccc1
2. COc1ccc(-c2nc3ccc(C4=NNC(=O)CC4C)cc3[nH]2)cc1 (stereo not drawn)

Completion:
["inactive", "inactive"]
